# test: Photostationary state (PSS) determination
# Format: physicochemical
# assayContext: estimated, UV/Vis spectroscopy in DMSO
Everything with 495 nm PSS lower than 70 % E is NO; everything else, including exactly 70 % E, is YES.

smilestext=O=C(Nc1ccc(/N=N/c2ccccc2)c(NC(=O)c2cccs2)c1)c1cccs1 answerlabel=YES
smilestext=N#Cc1ccc(/N=N/c2ccc(NC(=O)c3ccco3)cc2NC(=O)c2ccco2)cc1 answerlabel=NO
smilestext=N#Cc1ccc(/N=N/c2ccc(NC(=O)c3cccs3)cc2NC(=O)c2cccs2)cc1 answerlabel=NO

Inquiry: Can O=C(Nc1ccc(/N=N/c2ccc([N+](=O)[O-])cc2)c(NC(=O)c2ccco2)c1)c1ccco1 be said to have 495 nm PSS at or above 70 % E?
Reply text: NO

Inquiry: Consider next the compound O=C(Nc1ccccc1/N=N/c1ccccc1)c1ccco1 in the same way.
Reply text: YES
